These entries and their values trace back to paper PMC9482650.

Biological target: T1, DFNB31_2, Q9P202
T1 sequence (Q9P202 274-371, limits assumed, looked up): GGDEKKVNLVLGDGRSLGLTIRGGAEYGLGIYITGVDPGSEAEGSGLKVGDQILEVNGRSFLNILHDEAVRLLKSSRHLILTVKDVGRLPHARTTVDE
Assay: holdup assay
Set-up: key: below the threshold = too weak to quantify, mostly under pKd 3.1 to 4
Conditions: plain residues with an end cap or a label only (N-terminal biotin on a linker: ado-ado)
reported-metric: pKd

TSSMRGMDAV [RSRC2, Q7L4I2] :: below the threshold
EVEEFPETSV [TRPV3, Q8NET8] :: 3.5
DTTVPESEDL [MYOZ2, Q9NPC6] :: below the threshold
QPCFNKLFPL [LPXN, O60711] :: below the threshold
